measurement target: Histone deacetylase
procedure summary: Inhibition of HDAC in human HeLa cell nuclear extracts using Ac-NH-GGK(Ac)-AMC as substrate after 180 mins by fluorescence assay
Assay type: protein assay
recorded metric: IC50 (nM)
Only the number, expressed in nM, is required.

Field IC50 (system: Histone deacetylase) for entry C#Cc1cccc(Nc2ncnc3ccc(S(=O)(=O)n4ccc(/C=C/C(=O)NO)c4)cc23)c1 = 6.4

Field IC50 (system: Histone deacetylase) for entry C#Cc1cccc(Nc2ncnc3cc(NC(=O)c4ccc(C(=O)Nc5ccccc5N)nc4)ccc23)c1 = 510

----------
measurement target: Histone deacetylase 1 (Homo sapiens)
Sequence (Q13547 whole entry): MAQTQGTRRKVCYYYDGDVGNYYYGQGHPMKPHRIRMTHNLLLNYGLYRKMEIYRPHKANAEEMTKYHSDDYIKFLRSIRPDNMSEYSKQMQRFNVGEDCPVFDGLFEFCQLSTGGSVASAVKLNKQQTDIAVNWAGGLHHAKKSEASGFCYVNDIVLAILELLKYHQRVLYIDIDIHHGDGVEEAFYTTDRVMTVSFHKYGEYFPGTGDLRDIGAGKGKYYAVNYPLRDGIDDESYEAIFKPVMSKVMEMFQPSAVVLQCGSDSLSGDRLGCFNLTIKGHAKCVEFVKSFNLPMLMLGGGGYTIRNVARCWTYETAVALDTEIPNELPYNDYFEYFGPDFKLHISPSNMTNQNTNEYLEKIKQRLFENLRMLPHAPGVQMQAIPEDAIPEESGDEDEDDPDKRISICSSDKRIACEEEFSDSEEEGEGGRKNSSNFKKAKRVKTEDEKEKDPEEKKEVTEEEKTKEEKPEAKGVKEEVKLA
procedure summary: Inhibition of human recombinant HDAC1 expressed in human HEK293 cells using Ac-NH-GGK(Ac)-AMC as substrate after 180 mins by fluorescence assay
recorded metric: IC50 (nM)
Only the number, expressed in nM, is required.

Some solved entries appear below for comparison.
query smiles: C#Cc1cccc(Nc2ncnc3ccc(S(=O)(=O)n4ccc(/C=C/C(=O)NO)c4)cc23)c1
measure unit: nM
value observed: 6.5
--
query smiles: C#Cc1cccc(Nc2ncnc3cc(NC(=O)c4ccc(C(=O)Nc5ccccc5N)s4)ccc23)c1
measure unit: nM
value observed: 2200
--
query smiles: Nc1ccccc1NC(=O)c1ccc(COc2ccc3ncnc(Nc4cccc(Br)c4)c3c2)cc1
measure unit: nM
value observed: 74
--
query smiles: C#Cc1cccc(Nc2ncnc3ccc(NC(=O)c4ccc(C(=O)Nc5ccccc5N)s4)cc23)c1
measure unit: nM
value observed: 8600

Lab book: IC50 of C#Cc1cccc(Nc2ncnc3cc(NC(=O)c4ccc(C(=O)Nc5ccccc5N)nc4)ccc23)c1 noted as 5600

Lab book: IC50 of C#Cc1cccc(Nc2ncnc3ccc(NC(=O)c4ccc(C(=O)Nc5ccccc5N)nc4)cc23)c1 noted as 310

----------
Test system: HeLa
procedure summary: Cytotoxicity against human HeLa cells by Alamar Blue assay
Type: functional, cell-based
// reported IC50 per item
Only the number, expressed in nM, is required.

Some solved entries appear below for comparison.
query smiles: C#Cc1cccc(Nc2ncnc3cc(NC(=O)c4ccc(C(=O)Nc5ccccc5N)cc4)ccc23)c1
IC50 (nM): 1700

query smiles: C#Cc1cccc(Nc2ncnc3cc(NC(=O)c4ccc(C(=O)Nc5ccccc5N)s4)ccc23)c1
IC50 (nM): 1800

query smiles: C#Cc1cccc(Nc2ncnc3ccc(S(=O)(=O)n4ccc(/C=C/C(=O)NO)c4)cc23)c1
IC50 (nM): 500

Lab book: IC50 of Nc1ccccc1NC(=O)c1ccc(COc2ccc3ncnc(Nc4cccc(Br)c4)c3c2)cc1 noted as 1450

Lab book: IC50 of C#Cc1cccc(Nc2ncnc3cc(NC(=O)c4ccc(C(=O)Nc5ccccc5N)nc4)ccc23)c1 noted as 1500

Lab book: IC50 of C#Cc1cccc(Nc2ncnc3ccc(OCc4ccc(C(=O)Nc5ccccc5N)cc4)cc23)c1 noted as 1350

Lab book: IC50 of C#Cc1cccc(Nc2ncnc3ccc(NC(=O)c4ccc(C(=O)Nc5ccccc5N)nc4)cc23)c1 noted as 21500

Lab book: IC50 of C#Cc1cccc(Nc2ncnc3cc(OCCOC)c(OCCOC)cc23)c1 noted as 8300

Lab book: IC50 of C#Cc1cccc(Nc2ncnc3ccc(S(=O)(=O)n4ccc(/C=C/C(=O)Nc5ccccc5N)c4)cc23)c1 noted as 3450

----------
System: A549
procedure summary: Cytotoxicity against human A549 cells by Alamar Blue assay
Format: functional, cell-based
recorded metric: IC50 (µM)
Only the number, expressed in µM, is required.

query smiles: C#Cc1cccc(Nc2ncnc3ccc(OCc4ccc(C(=O)Nc5ccccc5N)cc4)cc23)c1
value observed: 0.9
//
query smiles: C#Cc1cccc(Nc2ncnc3cc(NC(=O)c4ccc(C(=O)Nc5ccccc5N)s4)ccc23)c1
value observed: 0.82
//
query smiles: C#Cc1cccc(Nc2ncnc3cc(NC(=O)c4ccc(C(=O)Nc5ccccc5N)nc4)ccc23)c1
value observed: 2.1

Let us examine a further case.
Field IC50 (system: A549) for entry Nc1ccccc1NC(=O)c1ccc(COc2ccc3ncnc(Nc4cccc(Br)c4)c3c2)cc1 = 1.3

----------
measurement target: Receptor tyrosine-protein kinase erbB-2 (Homo sapiens)
Sequence (P04626 whole entry): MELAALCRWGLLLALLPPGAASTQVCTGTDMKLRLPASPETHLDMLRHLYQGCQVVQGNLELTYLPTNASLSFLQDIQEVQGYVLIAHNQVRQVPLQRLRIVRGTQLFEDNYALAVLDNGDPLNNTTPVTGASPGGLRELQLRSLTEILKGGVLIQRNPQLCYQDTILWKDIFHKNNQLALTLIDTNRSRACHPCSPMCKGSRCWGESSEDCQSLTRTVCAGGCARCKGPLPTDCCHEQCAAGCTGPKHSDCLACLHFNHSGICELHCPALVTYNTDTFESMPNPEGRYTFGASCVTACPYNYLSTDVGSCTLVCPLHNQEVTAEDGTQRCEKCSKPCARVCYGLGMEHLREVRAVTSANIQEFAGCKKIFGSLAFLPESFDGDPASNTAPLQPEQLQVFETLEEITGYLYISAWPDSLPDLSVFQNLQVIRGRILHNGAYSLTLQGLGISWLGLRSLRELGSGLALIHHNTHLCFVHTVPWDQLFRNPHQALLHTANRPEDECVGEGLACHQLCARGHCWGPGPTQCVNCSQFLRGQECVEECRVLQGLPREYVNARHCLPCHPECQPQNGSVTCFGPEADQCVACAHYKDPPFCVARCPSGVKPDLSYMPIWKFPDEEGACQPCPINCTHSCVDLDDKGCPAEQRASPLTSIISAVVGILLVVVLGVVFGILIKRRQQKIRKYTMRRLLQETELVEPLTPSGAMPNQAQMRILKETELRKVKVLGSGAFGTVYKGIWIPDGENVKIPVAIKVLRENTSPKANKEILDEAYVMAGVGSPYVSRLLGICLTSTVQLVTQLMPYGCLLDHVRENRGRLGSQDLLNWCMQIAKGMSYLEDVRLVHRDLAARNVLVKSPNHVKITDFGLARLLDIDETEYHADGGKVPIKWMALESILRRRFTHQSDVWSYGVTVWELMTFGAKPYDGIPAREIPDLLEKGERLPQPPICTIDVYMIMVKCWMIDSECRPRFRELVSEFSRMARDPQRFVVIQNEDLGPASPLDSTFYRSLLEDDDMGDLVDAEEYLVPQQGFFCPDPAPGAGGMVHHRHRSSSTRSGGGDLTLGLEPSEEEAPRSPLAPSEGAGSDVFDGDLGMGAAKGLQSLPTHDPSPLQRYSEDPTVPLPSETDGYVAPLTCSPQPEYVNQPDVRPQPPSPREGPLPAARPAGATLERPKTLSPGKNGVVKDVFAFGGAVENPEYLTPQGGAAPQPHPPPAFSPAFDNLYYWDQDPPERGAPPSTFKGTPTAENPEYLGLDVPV
procedure summary: Inhibition of recombinant HER2 (unknown origin) using poly-Glu-Tyr peptide as substrate
recorded metric: IC50 (nM)
Only the number, expressed in nM, is required.

Some solved entries appear below for comparison.
query smiles: C#Cc1cccc(Nc2ncnc3ccc(OCc4ccc(C(=O)Nc5ccccc5N)cc4)cc23)c1
IC50 [nM]: 66

query smiles: C#Cc1cccc(Nc2ncnc3ccc(S(=O)(=O)n4ccc(/C=C/C(=O)NO)c4)cc23)c1
IC50 [nM]: 3400

query smiles: Nc1ccccc1NC(=O)c1ccc(COc2ccc3ncnc(Nc4cccc(Br)c4)c3c2)cc1
IC50 [nM]: 39

Lab book: IC50 of C#Cc1cccc(Nc2ncnc3ccc(S(=O)(=O)n4ccc(/C=C/C(=O)Nc5ccccc5N)c4)cc23)c1 noted as 2900

----------
measurement target: Serine/threonine-protein kinase PLK1 (Homo sapiens, UniProt P53350)
Sequence (P53350 whole entry): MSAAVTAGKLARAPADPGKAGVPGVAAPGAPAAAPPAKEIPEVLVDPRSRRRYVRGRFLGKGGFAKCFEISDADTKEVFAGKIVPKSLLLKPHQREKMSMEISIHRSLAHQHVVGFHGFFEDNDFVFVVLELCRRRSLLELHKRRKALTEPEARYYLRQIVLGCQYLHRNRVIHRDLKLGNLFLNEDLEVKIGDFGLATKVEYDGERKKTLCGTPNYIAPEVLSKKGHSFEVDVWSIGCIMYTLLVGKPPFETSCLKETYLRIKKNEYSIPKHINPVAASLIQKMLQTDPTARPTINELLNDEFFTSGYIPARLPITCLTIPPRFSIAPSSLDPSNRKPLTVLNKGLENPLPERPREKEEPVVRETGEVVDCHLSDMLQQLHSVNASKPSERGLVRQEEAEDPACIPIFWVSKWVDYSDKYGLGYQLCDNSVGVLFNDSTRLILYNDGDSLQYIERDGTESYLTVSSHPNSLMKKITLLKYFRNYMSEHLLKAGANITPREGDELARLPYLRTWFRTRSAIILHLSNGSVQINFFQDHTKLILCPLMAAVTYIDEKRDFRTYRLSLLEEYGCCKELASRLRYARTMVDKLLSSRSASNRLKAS
procedure summary: Inhibition of recombinant Plk1 (unknown origin) using poly-Glu-Tyr peptide as substrate
pIC50: −log10 of the molar value.
// reported pIC50 per item

Some solved entries appear below for comparison.
query smiles: C#Cc1cccc(Nc2ncnc3ccc(S(=O)(=O)n4ccc(/C=C/C(=O)Nc5ccccc5N)c4)cc23)c1
value observed: 4.57

query smiles: C#Cc1cccc(Nc2ncnc3ccc(S(=O)(=O)n4ccc(/C=C/C(=O)NO)c4)cc23)c1
value observed: < 4.00

query smiles: C#Cc1cccc(Nc2ncnc3ccc(OCc4ccc(C(=O)Nc5ccccc5N)cc4)cc23)c1
value observed: < 4.00

Field pIC50 (system: Serine/threonine-protein kinase PLK1 (Homo sapiens, UniProt P53350)) for entry Nc1ccccc1NC(=O)c1ccc(COc2ccc3ncnc(Nc4cccc(Br)c4)c3c2)cc1 = < 4.00

----------
measurement target: Epidermal growth factor receptor (Homo sapiens, UniProt P00533)
Sequence (P00533 whole entry): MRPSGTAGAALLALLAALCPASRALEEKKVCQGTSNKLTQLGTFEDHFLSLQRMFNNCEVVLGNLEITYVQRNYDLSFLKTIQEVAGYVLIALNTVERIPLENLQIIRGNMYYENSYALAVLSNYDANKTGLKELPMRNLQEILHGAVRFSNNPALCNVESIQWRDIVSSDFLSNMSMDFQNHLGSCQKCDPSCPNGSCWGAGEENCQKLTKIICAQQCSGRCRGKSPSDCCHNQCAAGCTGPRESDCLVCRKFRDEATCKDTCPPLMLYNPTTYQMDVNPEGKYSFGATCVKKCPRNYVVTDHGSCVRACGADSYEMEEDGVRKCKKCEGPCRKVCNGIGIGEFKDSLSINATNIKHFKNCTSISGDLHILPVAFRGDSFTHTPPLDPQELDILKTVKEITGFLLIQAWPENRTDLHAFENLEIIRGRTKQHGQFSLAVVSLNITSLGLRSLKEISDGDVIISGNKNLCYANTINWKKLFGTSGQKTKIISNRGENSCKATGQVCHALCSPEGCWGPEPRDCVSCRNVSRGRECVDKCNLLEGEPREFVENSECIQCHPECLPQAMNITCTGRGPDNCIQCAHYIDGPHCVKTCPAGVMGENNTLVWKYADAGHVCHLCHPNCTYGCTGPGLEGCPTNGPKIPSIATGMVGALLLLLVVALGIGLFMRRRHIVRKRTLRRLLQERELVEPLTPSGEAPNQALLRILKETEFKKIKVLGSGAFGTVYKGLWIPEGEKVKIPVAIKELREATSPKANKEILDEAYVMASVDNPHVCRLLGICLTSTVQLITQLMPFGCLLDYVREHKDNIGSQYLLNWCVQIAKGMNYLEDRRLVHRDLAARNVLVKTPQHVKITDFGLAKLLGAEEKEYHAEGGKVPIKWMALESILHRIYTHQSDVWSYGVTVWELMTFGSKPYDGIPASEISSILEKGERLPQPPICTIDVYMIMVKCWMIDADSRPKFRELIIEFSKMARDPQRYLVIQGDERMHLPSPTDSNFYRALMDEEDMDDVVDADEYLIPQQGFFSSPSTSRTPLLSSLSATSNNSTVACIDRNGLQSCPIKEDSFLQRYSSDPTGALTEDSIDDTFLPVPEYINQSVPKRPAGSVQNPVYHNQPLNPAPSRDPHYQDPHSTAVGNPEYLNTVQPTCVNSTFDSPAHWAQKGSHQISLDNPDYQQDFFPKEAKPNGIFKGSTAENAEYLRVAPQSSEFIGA
procedure summary: Inhibition of recombinant EGFR (unknown origin) using poly-Glu-Tyr peptide as substrate
recorded metric: pIC50
Note on pIC50: it is the negative log10 of concentration, concentration in mol/L.

Some solved entries appear below for comparison.
query smiles: C#Cc1cccc(Nc2ncnc3ccc(OCc4ccc(C(=O)Nc5ccccc5N)cc4)cc23)c1
pIC50: 7.11
--
query smiles: C#Cc1cccc(Nc2ncnc3ccc(S(=O)(=O)n4ccc(/C=C/C(=O)Nc5ccccc5N)c4)cc23)c1
pIC50: 5.89
--
query smiles: Nc1ccccc1NC(=O)c1ccc(COc2ccc3ncnc(Nc4cccc(Br)c4)c3c2)cc1
pIC50: 7.48

Let us examine a further case.
Lab book: pIC50 of C#Cc1cccc(Nc2ncnc3ccc(S(=O)(=O)n4ccc(/C=C/C(=O)NO)c4)cc23)c1 noted as 5.92

----------
// reported pIC50 per item
Test system: A549
procedure summary: Cytotoxicity against human A549 cells by Alamar Blue assay
Format: functional, cell-based
Note on pIC50: it is the negative log10 of concentration, concentration in mol/L.

query smiles: C#Cc1cccc(Nc2ncnc3ccc(S(=O)(=O)n4ccc(/C=C/C(=O)Nc5ccccc5N)c4)cc23)c1
pIC50: 5.43

query smiles: C#Cc1cccc(Nc2ncnc3cc(NC(=O)c4ccc(C(=O)Nc5ccccc5N)cc4)ccc23)c1
pIC50: 5.85

query smiles: C#Cc1cccc(Nc2ncnc3ccc(S(=O)(=O)n4ccc(/C=C/C(=O)NO)c4)cc23)c1
pIC50: 6.62

Let us examine a further case.
Field pIC50 (system: A549) for entry C#Cc1cccc(Nc2ncnc3ccc(NC(=O)c4ccc(C(=O)Nc5ccccc5N)nc4)cc23)c1 = 4.41

----------
measurement target: Cyclin-dependent kinase 2 (Homo sapiens)
procedure summary: Inhibition of recombinant CDK2 (unknown origin) using poly-Glu-Tyr peptide as substrate
recorded metric: IC50 (µM)
Only the number, expressed in µM, is required.

query smiles: C#Cc1cccc(Nc2ncnc3ccc(S(=O)(=O)n4ccc(/C=C/C(=O)Nc5ccccc5N)c4)cc23)c1
IC50 (µM): 17
//
query smiles: Nc1ccccc1NC(=O)c1ccc(COc2ccc3ncnc(Nc4cccc(Br)c4)c3c2)cc1
IC50 (µM): 22

Let us examine a further case.
Field IC50 (system: Cyclin-dependent kinase 2 (Homo sapiens)) for entry C#Cc1cccc(Nc2ncnc3ccc(OCc4ccc(C(=O)Nc5ccccc5N)cc4)cc23)c1 = 13

----------
measurement target: Histone deacetylase
procedure summary: Inhibition of HDAC in human HeLa cells using Boc-K(Ac)-AMC as substrate preincubated for 4 hrs before substrate addition measured after 3 hrs by fluorescence assay
Type: cell-based
recorded metric: IC50 (µM)
Only the number, expressed in µM, is required.

Some solved entries appear below for comparison.
query smiles: C#Cc1cccc(Nc2ncnc3cc(NC(=O)c4ccc(C(=O)Nc5ccccc5N)cc4)ccc23)c1
IC50, µM: 0.78
--
query smiles: C#Cc1cccc(Nc2ncnc3ccc(S(=O)(=O)n4ccc(/C=C/C(=O)Nc5ccccc5N)c4)cc23)c1
IC50, µM: 4.24
--
query smiles: Nc1ccccc1NC(=O)c1ccc(COc2ccc3ncnc(Nc4cccc(Br)c4)c3c2)cc1
IC50, µM: 2.46
--
query smiles: C#Cc1cccc(Nc2ncnc3ccc(OCc4ccc(C(=O)Nc5ccccc5N)cc4)cc23)c1
IC50, µM: 1.85

Let us examine a further case.
Field IC50 (system: Histone deacetylase) for entry C#Cc1cccc(Nc2ncnc3ccc(S(=O)(=O)n4ccc(/C=C/C(=O)NO)c4)cc23)c1 = 0.034

// provenance: ChEMBL document CHEMBL3217617
